B1: TPR 5TU (parent)
chain: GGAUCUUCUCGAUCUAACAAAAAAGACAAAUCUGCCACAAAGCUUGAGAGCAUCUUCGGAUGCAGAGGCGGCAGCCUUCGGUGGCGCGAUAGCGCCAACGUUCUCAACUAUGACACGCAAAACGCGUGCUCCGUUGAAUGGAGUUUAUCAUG

Variants of: B1
TEST DETAILS: polymerase ribozyme fitness, log enrichment relative to wild type (log ratio); higher = more active; in vitro selection for triplet polymerase activity
Variants at the floor of the assay were thinned out.
Measured polymerase ribozyme fitness (log ratio) of individual entries
MEASUREMENT LABEL: polymerase ribozyme fitness (log ratio)

INSERT INTO assay_data (mutation_string, comparative_sign, readout_number) VALUES
  ('U6G A12U A28C A40C G94C', '≤', -4.2),
  ('A30G G48U C76G C96U A97C U134G', '≤', -4.2),
  ('G67A C85G A106G C129U G140C G143A', '≤', -4.2),
  ('G11C A39U A73U C96U', '≤', -4.2),
  ('U55C U56A A98U U145A', '=', -1.11),
  ('C5A A17C G88A G117U', '=', -3.46),
  ('A20U A122U U144G', '=', -0.756),
  ('G48A G50C', '=', -3.83),
  ('C5G C10U A49G U56A G74C C85U U90G C93U G100U A115C G141A', '≤', -4.2),
  ('G50U G58U G59U C76A', '≤', -4.2),
  ('A3U C8U C96U', '=', -1.89),
  ('C76G A91C', '≤', -4.2),
  ('U53A U55G', '=', -3.97),
  ('G59A C85U U134A', '=', -3.92),
  ('C18G A21G', '=', -0.433),
  ('G62C C63A C116G', '=', -1.77),
  ('U44A G117U', '≤', -4.2),
  ('C38U C51G U82C C96A A97U C125G', '=', -3.55),
  ('G86A C99G', '=', -3.06),
  ('C35U G140C', '=', -4.13),
  ('C76A C103U U134A', '=', -4.15),
  ('C54U C93U U144C U146G', '=', -3.87),
  ('C8A U15G C18U G58C C96G', '=', -3.95),
  ('U6A C14U A91C A150U', '≤', -4.2),
  ('A26C C27G C51G G83C A89C A138G A142U', '≤', -4.2),
  ('C57G A120U U144A', '=', -1.24),
  ('U4G A24G U44A U56G G94A A138C', '≤', -4.2),
  ('A17U G83A G86U A142C', '≤', -4.2),
  ('G59U C75A C96G', '≤', -4.2),
  ('C36U C69G A73G C87A G100U G112C G141C', '≤', -4.2),
  ('A142G A147U', '=', -0.49),
  ('C54G G59U U135C A138U', '≤', -4.2),
  ('G46C U56A G84A G133C', '=', -2.71),
  ('U45G G48U A60U C72A G80C C96A U102G', '≤', -4.2),
  ('C87A U90G U134G', '≤', -4.2),
  ('G42A G86A C118A', '≤', -4.2),
  ('C10U A91U C96A A98U A142G U151C', '≤', -4.2),
  ('A17G C35A G67C C96U C114U C116U', '≤', -4.2),
  ('A41G A60U U130C', '=', -0.614),
  ('A39G G42A C87G', '≤', -4.2),
  ('U31A C38A G50C C85U', '≤', -4.2),
  ('C95A G140A', '=', -2.71);
